Entries below carry reported AC50 on Adenosine receptor A2a (Homo sapiens, UniProt P29274).
Sequence (P29274 whole entry): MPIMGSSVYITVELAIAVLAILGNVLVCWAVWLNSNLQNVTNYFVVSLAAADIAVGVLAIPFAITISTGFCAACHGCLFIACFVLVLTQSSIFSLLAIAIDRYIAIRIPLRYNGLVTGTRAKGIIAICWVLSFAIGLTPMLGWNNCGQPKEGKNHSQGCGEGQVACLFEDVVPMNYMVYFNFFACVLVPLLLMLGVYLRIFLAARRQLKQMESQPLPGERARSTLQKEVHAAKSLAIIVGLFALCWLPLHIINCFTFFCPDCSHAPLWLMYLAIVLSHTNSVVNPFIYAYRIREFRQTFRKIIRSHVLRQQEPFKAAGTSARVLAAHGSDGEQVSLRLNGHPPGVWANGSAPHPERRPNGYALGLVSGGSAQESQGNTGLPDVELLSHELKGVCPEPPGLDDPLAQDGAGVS

### Prompt Answer with the recorded AC50 for the compound listed here: O=C(NCCO[N+](=O)[O-])c1cccnc1 [NICORANDIL]
### Response > 30 µM

### Prompt Answer with the recorded AC50 for the compound listed here: S=P(N1CC1)(N1CC1)N1CC1 [THIOTEPA]
### Response > 30 µM

### Prompt Answer with the recorded AC50 for the compound listed here: CN1CCN=C(c2ccccc2)c2cc(Cl)ccc21 [MEDAZEPAM]
### Response > 30 µM

### Prompt Answer with the recorded AC50 for the compound listed here: Fc1ccc([C@@H]2CCNC[C@H]2COc2ccc3c(c2)OCO3)cc1 [PAROXETINE]
### Response > 30 µM

### Prompt Answer with the recorded AC50 for the compound listed here: OC[C@H]1O[C@@H](n2cnc3c2NC=NC[C@H]3O)C[C@@H]1O [PENTOSTATIN]
### Response 3.4 µM

### Prompt Answer with the recorded AC50 for the compound listed here: CNC(=C[N+](=O)[O-])NCCSCc1csc(CN(C)C)n1 [NIZATIDINE]
### Response > 10 µM

### Prompt Answer with the recorded AC50 for the compound listed here: Clc1ccc(CCC(Cn2ccnc2)Sc2c(Cl)cccc2Cl)cc1 (centres undefined) [BUTOCONAZOLE]
### Response > 30 µM

### Prompt Answer with the recorded AC50 for the compound listed here: CCCc1nc2c(C)cc(-c3nc4ccccc4n3C)cc2n1Cc1ccc(-c2ccccc2C(=O)O)cc1
### Response > 30 µM

### Prompt Answer with the recorded AC50 for the compound listed here: C=CC[N+]1([C@H]2C[C@H]3[C@@H]4CC[C@H]5C[C@H](O)[C@@H](N6CCOCC6)C[C@]5(C)[C@H]4CC[C@]3(C)[C@H]2OC(C)=O)CCCC1 [ROCURONIUM]
### Response > 30 µM
